molecular target: human Cot catalytic domain (30-397 amino acids) (Homo sapiens, UniProt P41279); construct: Purified recombinant human Cot catalytic domain (30-397 amino acids) was purchased from Cama Biosciences; purchased Cama Biosciences (so in the source); assay: High Throughput Cot Biochemical Assay (KinEASE TR-FRET); settings: Cot biochemical HTRF (KinEASE TR-FRET) assay; read-out: IC50 HTRF
Sequence (P41279 30-397): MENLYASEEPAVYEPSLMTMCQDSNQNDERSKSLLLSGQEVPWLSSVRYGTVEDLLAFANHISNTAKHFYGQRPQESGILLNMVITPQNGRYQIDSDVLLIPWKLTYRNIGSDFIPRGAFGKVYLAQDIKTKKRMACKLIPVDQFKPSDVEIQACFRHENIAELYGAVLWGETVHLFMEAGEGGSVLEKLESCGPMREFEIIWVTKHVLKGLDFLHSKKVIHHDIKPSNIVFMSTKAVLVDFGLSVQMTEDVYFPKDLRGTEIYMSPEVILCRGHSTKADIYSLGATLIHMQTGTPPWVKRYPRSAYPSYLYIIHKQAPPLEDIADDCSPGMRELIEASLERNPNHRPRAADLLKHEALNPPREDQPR
endpoint: IC50 (nM)

A. CC(C)(C)N1CCC(n2cc([C@@H](Nc3cc(Cl)c4ncc(C#N)c(NC5CCCC5)c4c3)c3ccc(Cl)cc3)nn2)CC1
B. N#Cc1cnc2c(Cl)cc(N[C@@H](c3ccc(F)cc3)c3cn(CCCN4CCCC4)nn3)cc2c1Nc1cnc(F)c(F)c1
C. N#Cc1cnc2c(Cl)cc(N[C@@H](c3ccc(F)cc3)c3cn(CC(F)(F)F)nn3)cc2c1Nc1cnc(F)c(F)c1
D. CC(C)(C)N1CCC(n2cc([C@@H](Nc3cc(Cl)c4ncc(C#N)c(Nc5cccc(F)c5)c4c3)c3ccc(Cl)cc3)nn2)CC1
E. N#Cc1cnc2c(Cl)cc(N[C@@H](c3ccccc3)c3cn(CCN)nn3)cc2c1Nc1ccc(F)c(Cl)c1
q: Please list these in order of increasing IC50. Thank you! Lab note: record answer as labels in requested order.
a: E, B, D, C, A
(E: 2 nM, B: 9 nM, D: 48 nM, C: 85 nM, A: 131 nM)
